The reported numbers originate from ChEMBL document CHEMBL1149228.

# Study target: Transient receptor potential cation channel subfamily V member 1 (Rattus norvegicus)
# Sequence (O35433 whole entry): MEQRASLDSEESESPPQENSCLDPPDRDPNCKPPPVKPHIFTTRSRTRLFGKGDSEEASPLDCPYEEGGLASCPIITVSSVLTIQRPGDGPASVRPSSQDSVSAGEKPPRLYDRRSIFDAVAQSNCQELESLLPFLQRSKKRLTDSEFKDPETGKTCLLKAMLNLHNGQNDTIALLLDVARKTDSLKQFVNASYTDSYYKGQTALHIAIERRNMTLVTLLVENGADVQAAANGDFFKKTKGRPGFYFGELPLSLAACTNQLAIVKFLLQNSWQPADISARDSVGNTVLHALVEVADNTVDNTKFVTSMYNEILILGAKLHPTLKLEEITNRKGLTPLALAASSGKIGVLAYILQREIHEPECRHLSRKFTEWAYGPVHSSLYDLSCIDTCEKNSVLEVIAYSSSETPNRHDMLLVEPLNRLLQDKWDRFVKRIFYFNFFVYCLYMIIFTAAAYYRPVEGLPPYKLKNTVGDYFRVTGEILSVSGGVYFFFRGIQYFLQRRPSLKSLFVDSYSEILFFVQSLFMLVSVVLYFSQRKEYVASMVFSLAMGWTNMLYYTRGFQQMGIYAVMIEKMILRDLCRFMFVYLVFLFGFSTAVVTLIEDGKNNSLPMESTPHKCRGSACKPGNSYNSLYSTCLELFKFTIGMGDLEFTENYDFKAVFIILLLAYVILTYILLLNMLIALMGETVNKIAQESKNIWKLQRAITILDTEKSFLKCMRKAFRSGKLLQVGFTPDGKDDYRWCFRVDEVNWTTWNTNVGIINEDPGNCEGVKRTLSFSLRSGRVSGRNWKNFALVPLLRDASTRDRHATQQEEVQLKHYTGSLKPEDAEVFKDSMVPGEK
# Experiment description: Agonist effect on 45 [Ca2+] influx in vanilloid receptor expressing CHO cells relative to maximal capsaicin (300 nM) response, weak effect at 30 µM
# Particulars: read-out: EC50
Readout label: EC50

Incoming: Sample COc1cc(CO/C(S)=N/CC(COC(=O)C(C)(C)C)Cc2ccc(C)c(C)c2)ccc1NS(C)(=O)=O (stereo unspecified) — what was its EC50?
Outgoing: 373 nM

====

Heads up, these compounds all have pKi values measured for Transient receptor potential cation channel subfamily V member 1 (Rattus norvegicus).
In simple prose, pKi is minus the logarithm base ten of a concentration in moles per litre.

compound="COc1cc(CC(=O)NCC(COC(=O)C(C)(C)C)Cc2ccc(C)c(C)c2)ccc1NS(C)(=O)=O (stereo not drawn)" study_target="Transient receptor potential cation channel subfamily V member 1 (Rattus norvegicus)" readout_label=pKi observed_value=6.37
compound="COc1cc(C/N=C(\\S)N(O)CC(COC(=O)C(C)(C)C)Cc2ccc(C)c(C)c2)ccc1NS(C)(=O)=O (stereo not drawn)" study_target="Transient receptor potential cation channel subfamily V member 1 (Rattus norvegicus)" readout_label=pKi observed_value=6.40
compound="Cc1ccc(CC(COC(=O)C(C)(C)C)CN(O)/C(S)=N/Cc2ccc(NS(C)(=O)=O)cc2Cl)cc1C (stereo not drawn)" study_target="Transient receptor potential cation channel subfamily V member 1 (Rattus norvegicus)" readout_label=pKi observed_value=6.66

Incoming: Sample Cc1ccc(CC(CNC(=O)Cc2ccc(NS(C)(=O)=O)cc2)COC(=O)C(C)(C)C)cc1C (stereo not drawn) — what was its pKi?
Outgoing: 6.30

Incoming: Cool, now Cc1ccc(CC(COC(=O)Cc2ccc(NS(C)(=O)=O)cc2)COC(=O)C(C)(C)C)cc1C (stereo not drawn)
Outgoing: 5.70

====

Heads up, these molecules all have Ki values measured for Transient receptor potential cation channel subfamily V member 1 (Rattus norvegicus).
The response must be a number in nM with no trailing unit.

Answered examples (2):
molecule="Cc1ccc(CC(CNC(=S)OCc2ccc(NS(C)(=O)=O)c(F)c2)COC(=O)C(C)(C)C)cc1C (stereo not drawn)" study_target="Transient receptor potential cation channel subfamily V member 1 (Rattus norvegicus)" readout_label=Ki observed_value=210
molecule="CC(C)(C)C(=O)OCC(Cc1ccc(C(C)(C)C)cc1)CN(O)/C(S)=N/Cc1ccc(NS(C)(=O)=O)c(F)c1 (stereo not drawn)" study_target="Transient receptor potential cation channel subfamily V member 1 (Rattus norvegicus)" readout_label=Ki observed_value=405

Consider now this further molecule.
Incoming: Sample Cc1ccc(CC(CNC(=S)OCc2ccc(NS(C)(=O)=O)cc2)COC(=O)C(C)(C)C)cc1C (stereo not drawn) — what was its Ki?
Outgoing: 336
